// mortality at 72 h, 0.5 ppm lookup, one value per entry
- Method Notes: Toxicity against Oryzias latipes (Japanese medaka) assessed as fish mortality at 0.5 ppm measured after 3 days
- Assay type: organism-based
- Assay Conditions: in vivo
Enter your answer as a number in %; do not include the unit.

Solved cases below.
CCOCCc1ccc(OCCN(C(=O)CC)C(=O)c2c(Cl)c(C)nn2C)c(C)c1 :: 100
CCOCCc1ccc(OCCN(C(C)=O)C(=O)c2cc(C(C)C)nn2C)c(C)c1 :: 100
CCOCCc1ccc(OCCN(C(=O)CC)C(=O)c2cc(C(C)(C)C)nn2C)c(C)c1 :: 1
CCOCCc1ccc(OCCN(C(C)=O)C(=O)c2c(Cl)c(C)nn2C)c(C)c1 :: 100
CCOCCc1ccc(OCCNC(=O)c2c(Cl)c(C(C)(C)C)nn2C)c(C)c1 :: 0
CCOCCc1ccc(OCCN(C(C)=O)C(=O)c2c(Cl)cnn2C)c(C)c1 :: 0
CCOCCc1ccc(OCCN(C(C)=O)C(=O)c2cc(CC)nn2C)c(C)c1 :: 100
CCOCCc1ccc(OCCN(C(C)=O)C(=O)c2cc(C3CC3)nn2C)c(C)c1 :: 51

mortality at 72 h, 0.5 ppm lookup needed for CCCCCC(=O)N(CCOc1ccc(CCOCC)cc1C)C(=O)c1c(Cl)c(C)nn1C , thanks.
100

mortality at 72 h, 0.5 ppm lookup needed for CCOCCc1ccc(OCCN(C(=O)c2cc(C(C)(C)C)nn2C)C(=O)C2CC2)c(C)c1 , thanks.
0

---

// mortality at 72 h, 0.5 ppm lookup, one value per entry
- Method Notes: Toxicity against Oryzias latipes (Japanese medaka) assessed as fish mortality at 0.5 ppm measured after 3 days
- Format: organism-based
- Assay Conditions: in vivo
Enter your answer as a number in %; do not include the unit.

Solved cases below.
CCCC(=O)N(CCOc1ccc(CCOCC)cc1C)C(=O)c1c(Cl)c(C)cn1C :: 100
CCOCCc1ccc(OCCNC(=O)c2c(Cl)c(CC)nn2C)c(C)c1 :: 100
CCOCCc1ccc(OCCNC(=O)c2cc(C)nn2C)c(C)c1 :: 0
CCCc1cc(C(=O)N(CCOc2ccc(CCOCC)cc2C)C(C)=O)n(C)n1 :: 51
CCOCCc1ccc(OCCN(C(C)=O)C(=O)c2cc(C(C)(C)C)nn2C)c(C)c1 :: 1

Continue with the compound presented below.
mortality at 72 h, 0.5 ppm lookup needed for CCOCCc1ccc(OCCNC(=O)c2cc(C(C)(C)C)nn2C)c(C)c1 , thanks.
100

---

- Method Notes: Toxicity against Oryzias latipes (Japanese medaka) assessed as fish mortality at 0.05 ppm measured after 3 days
- Type: organism-based
- Assay Conditions: in vivo
Measured Metric: mortality at 72 h, 0.05 ppm (%)
Enter your answer as a number in %; do not include the unit.

CCOCCc1ccc(OCCN(C(C)=O)C(=O)c2c(Cl)c(CC)nn2C)c(C)c1 :: 51
CCOCCc1ccc(OCCNC(=O)c2c(Cl)c(CC)nn2C)c(C)c1 :: 100
CCOCCc1ccc(OCCN(C(C)=O)C(=O)c2c(Cl)c(C(C)(C)C)nn2C)c(C)c1 :: 0

mortality at 72 h, 0.05 ppm lookup needed for CCCc1cc(C(=O)N(CCOc2ccc(CCOCC)cc2C)C(C)=O)n(C)n1 , thanks.
0

mortality at 72 h, 0.05 ppm lookup needed for CCOCCc1ccc(OCCNC(=O)c2cc(C(C)(C)C)nn2C)c(C)c1 , thanks.
1

mortality at 72 h, 0.05 ppm lookup needed for CCOCCc1ccc(OCCN(C(C)=O)C(=O)c2cc(C(C)(C)C)nn2C)c(C)c1 , thanks.
0

mortality at 72 h, 0.05 ppm lookup needed for CCOCCc1ccc(OCCN(C(C)=O)C(=O)c2cc(C)nn2C)c(C)c1 , thanks.
0

mortality at 72 h, 0.05 ppm lookup needed for CCOCCc1ccc(OCCN(C(=O)CC)C(=O)c2cc(C(C)(C)C)nn2C)c(C)c1 , thanks.
0

mortality at 72 h, 0.05 ppm lookup needed for CCOCCc1ccc(OCCN(C(=O)c2ccccc2)C(=O)c2cc(C(C)(C)C)nn2C)c(C)c1 , thanks.
0

mortality at 72 h, 0.05 ppm lookup needed for CCOCCc1ccc(OCCN(C(=O)CC)C(=O)c2c(Cl)c(C)nn2C)c(C)c1 , thanks.
0

---

- Method Notes: Toxicity against Oryzias latipes (Japanese medaka) assessed as fish mortality at 0.05 ppm measured after 3 days
- Type: organism-based
- Assay Conditions: in vivo
Measured Metric: mortality at 72 h, 0.05 ppm (%)
Enter your answer as a number in %; do not include the unit.

CCOCCc1ccc(OCCNC(=O)c2cc(C)nn2C)c(C)c1 :: 0
CCCC(=O)N(CCOc1ccc(CCOCC)cc1C)C(=O)c1c(Cl)c(C)cn1C :: 0
CCCCCC(=O)N(CCOc1ccc(CCOCC)cc1C)C(=O)c1c(Cl)c(C)nn1C :: 1

mortality at 72 h, 0.05 ppm lookup needed for CCOCCc1ccc(OCCNC(=O)c2cc(CC)nn2C)c(C)c1 , thanks.
51

mortality at 72 h, 0.05 ppm lookup needed for CCOCCc1ccc(OCCN(C(C)=O)C(=O)c2cc(C3CC3)nn2C)c(C)c1 , thanks.
0

mortality at 72 h, 0.05 ppm lookup needed for CCOCCc1ccc(OCCN(C(=O)c2cc(C(C)(C)C)nn2C)C(=O)C(C)C)c(C)c1 , thanks.
0

mortality at 72 h, 0.05 ppm lookup needed for CCCCCCCCCCC(=O)N(CCOc1ccc(CCOCC)cc1C)C(=O)c1c(Cl)c(C)nn1C , thanks.
0

mortality at 72 h, 0.05 ppm lookup needed for CCOCCc1ccc(OCCN(C(C)=O)C(=O)c2cc(CC)nn2C)c(C)c1 , thanks.
0

---

// mortality at 72 h, 0.5 ppm lookup, one value per entry
- Method Notes: Toxicity against Oryzias latipes (Japanese medaka) assessed as fish mortality at 0.5 ppm measured after 3 days
- Format: organism-based
- Assay Conditions: in vivo
Enter your answer as a number in %; do not include the unit.

Solved cases below.
CCOCCc1ccc(OCCNC(=O)c2cc(CC)nn2C)c(C)c1 :: 100
CCOCCc1ccc(OCCN(C(=O)c2ccccc2)C(=O)c2cc(C(C)(C)C)nn2C)c(C)c1 :: 0
CCOCCc1ccc(OCCN(C(C)=O)C(=O)c2c(Cl)c(C(C)(C)C)nn2C)c(C)c1 :: 0
CCOCCc1ccc(OCCN(C(C)=O)C(=O)c2c(Cl)c(CC)nn2C)c(C)c1 :: 100
CCCCCCCCCCC(=O)N(CCOc1ccc(CCOCC)cc1C)C(=O)c1c(Cl)c(C)nn1C :: 51
CCCc1cc(C(=O)NCCOc2ccc(CCOCC)cc2C)n(C)n1 :: 100
CCCc1nn(C)c(C(=O)N(CCOc2ccc(CCOCC)cc2C)C(C)=O)c1Cl :: 100
CCOCCc1ccc(OCCN(C(C)=O)C(=O)c2cc(C)nn2C)c(C)c1 :: 1

mortality at 72 h, 0.5 ppm lookup needed for CCOCCc1ccc(OCCNC(=O)c2c(Cl)c(C)nn2C)c(C)c1 , thanks.
100

mortality at 72 h, 0.5 ppm lookup needed for CCOCCc1ccc(OCCN(C(=O)c2cc(C(C)(C)C)nn2C)C(=O)C(C)C)c(C)c1 , thanks.
0

---

// mortality at 72 h, 0.05 ppm lookup, one value per entry
- Method Notes: Toxicity against Oryzias latipes (Japanese medaka) assessed as fish mortality at 0.05 ppm measured after 3 days
- Format: organism-based
- Assay Conditions: in vivo
Enter your answer as a number in %; do not include the unit.

CCOCCc1ccc(OCCN(C(C)=O)C(=O)c2c(Cl)cnn2C)c(C)c1 :: 0
CCOCCc1ccc(OCCN(C(C)=O)C(=O)c2c(Cl)c(C)nn2C)c(C)c1 :: 1

mortality at 72 h, 0.05 ppm lookup needed for CCCc1nn(C)c(C(=O)N(CCOc2ccc(CCOCC)cc2C)C(C)=O)c1Cl , thanks.
0

mortality at 72 h, 0.05 ppm lookup needed for CCOCCc1ccc(OCCN(C(=O)c2cc(C(C)(C)C)nn2C)C(=O)C2CC2)c(C)c1 , thanks.
0

mortality at 72 h, 0.05 ppm lookup needed for CCOCCc1ccc(OCCNC(=O)c2c(Cl)c(C(C)(C)C)nn2C)c(C)c1 , thanks.
0

---

- Method Notes: Toxicity against Oryzias latipes (Japanese medaka) assessed as fish mortality at 0.05 ppm measured after 3 days
- Assay type: organism-based
- Assay Conditions: in vivo
Measured Metric: mortality at 72 h, 0.05 ppm
Don't forget the unit after the value.

CCOCCc1ccc(OCCNC(=O)c2c(Cl)c(C)nn2C)c(C)c1 :: 100%

mortality at 72 h, 0.05 ppm lookup needed for CCOCCc1ccc(OCCN(C(C)=O)C(=O)c2cc(C(C)C)nn2C)c(C)c1 , thanks.
0%

mortality at 72 h, 0.05 ppm lookup needed for CCCc1cc(C(=O)NCCOc2ccc(CCOCC)cc2C)n(C)n1 , thanks.
1%
